# ASSAY PROCEDURE: Toxicity analysis of test compounds in 2.2.15 cells (neutral red dye uptake)
# Format: cell-based
# COND: human, 30 μM
# Experimental: Toxicity analyses were performed in order to assess whether any observed antiviral effects are due to a general effect on cell viability. […] Toxicity analyses were performed in 96-well flat bottomed tissue culture plates. […] The absorbance of internalized dye at […] (A510) was used for the quantitative analysis. […]
# viability at 30 µM per entry
Number only, in %; omit the unit.

Past entries and their recorded results:
Nc1nc2c(ncn2[C@H]2CO[C@@H](CO)O2)c(=O)[nH]1 [Dioxolane-G]; 101
Nc1nc(N)c2ncn([C@H]3CO[C@@H](CO)O3)c2n1 [DAPD]; 99

// moving on: another record for viability at 30 µM
[ask] Give a short answer stating reported viability at 30 µM for Nc1ccn([C@H]2CC[C@@H](CO)O2)c(=O)n1 [2',3'-ddC, 2',3'-dideoxycytosine, reference compound] .
[reply] 101
